experimentDescription: 96-well MTS viability assay, GT41F fibroblasts
Type: cell-based, human
experimentalSetup: human, GT41F skin fibroblasts, spd-3a 1 μM, single agent, read-out: viability retained

{"compound": "CC(=O)NCCSCC(=O)NCCCNCCCCN [3a]", "viability at 3 days, 1 µM": "~60%"}
